# Tested on: L. infantum (axenic) amastigotes
# particulars: axenic amastigotes
Where no end group is shown, it is not given here.
observed property: pIC50
pIC50 (log units): -log10 of the concentration in mol/L.

# input Consider the substance shown here: FLSGIVGMLGKLF-NH2 [SHa, temporin-SHa] What is its recorded pIC50?
# output 4.70

###

# System: L. infantum promastigotes
# particulars: promastigotes, 96 h
Where no end group is shown, it is not given here.
observed property: pIC50
pIC50 (log units): -log10 of the concentration in mol/L.

# input Consider the substance shown here: GLWSKIKEVGKEAAKAAAKAAGKAALGAVSEAV-NH2 (C-terminus assumed) [dermaseptin B2, reference compound] What is its recorded pIC50?
# output 5.60

###

# Test system: Human THP-1 monocytes
# particulars: MTT, 72 h, 37°C, 1–60 μM; mean of 3 independent experiments in triplicate
pIC50: −log10 of the molar value. Where no end group is shown, it is not given here.
observed property: pIC50

# input Consider the substance shown here: FLSGIVGMLGKLF-NH2 [SHa, temporin-SHa] What is its recorded pIC50?
# output < 4.22

###

# Tested on: L. infantum (antimony resistant) promastigotes
# particulars: antimony-resistant parasites
Where no end group is shown, it is not given here.
observed property: IC50 (µM)
Respond numerically; units are µM and should not be typed.

FLSGIVGMLGKLF-NH2 [SHa, temporin-SHa] :: 14

# input Consider the substance shown here: FLKGIVGMLGKLF-NH2 [[K^3]SHa, [K^3]temporin-SHa] What is its recorded IC50?
# output 9

###

# Test system: T. cruzi epimastigotes
# particulars: epimastigotes, 120 h
Where no end group is shown, it is not given here.
observed property: IC50

# input Consider the substance shown here: FLKGIVGMLGKLF-NH2 [[K^3]SHa, [K^3]temporin-SHa] What is its recorded IC50?
# output 10 µM

###

# System: L. infantum promastigotes
# particulars: medium with serum; mean of 3 independent experiments in triplicate
Where no end group is shown, it is not given here.
observed property: IC50 (µM)
Respond numerically; units are µM and should not be typed.

# input Consider the substance shown here: FLSGIVGMLGKLF-NH2 [SHa, temporin-SHa] What is its recorded IC50?
# output 18

###

# Tested on: T. brucei gambiense
# particulars: 96 h incubation, cell counting; mean of 3 independent experiments in duplicate
Where no end group is shown, it is not given here.
observed property: pIC50
pIC50 (log units): -log10 of the concentration in mol/L.

# input Lab note: need pIC50 for FLSGIVGMLGKLF-NH2 [SHa, temporin-SHa] on T. brucei gambiense, anyone have it?
# output 4.85
